- target: T1, his-tagged human TIGIT (Acro Biosystems #TIT-H52H3) (human, UniProt Q495A1 22-141)
- T1 construct: Bought protein; also called His-tagged-TIGIT (human); not shown: his tag
- T1 sequence (looked up): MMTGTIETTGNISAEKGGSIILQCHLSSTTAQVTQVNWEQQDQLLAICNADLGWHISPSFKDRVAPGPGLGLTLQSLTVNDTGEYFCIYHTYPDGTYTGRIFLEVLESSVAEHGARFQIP
- experiment.notes: ELISA, coated His-TIGIT, 1 ug/ml
parameter: Elisa OD450
# output: number + unit

# Elisa OD450 of 43586p2.C09 (scFv, V domains shown) VH: EVQLLESGGGLVQPGGSLRLSCTASGFTFTSYAMSWVSQAPGKGLEWVAGISYDGSIKYYADSVKGRLTISRDNSKNTLYLQMNSLRAEDTAIYYCAKHLTGGTTDYYYYAMDVWGQGTTVTVSS VL: QSVLTQPPSASGTPGQRVTISCSGSTSNIGTNRYVHWYQQFPGTAPKLLIYGTDRRPSGVSDRFSGSKSGTSASLAISGLQSEDEADYYCAAWDDSLSAWVFGGGTKLTVL = 2.07 OD450

Elisa OD450 for 43586p2.A03 (scFv, V domains shown) VH: EVQLLESGGGLVQPGGSLRLSCAASGFTFTSYAMSWVRQAPGKGLEWVAGISYIGRNEYYADSVKGRLTISRDNSKNTLYLQMNNLRAEDTAIYYCAKHLTGGTTDYYYYGMDVWGQGTTVTVSS VL: QSVLTQPPSASGTPGQRVTISCSGSTSNIGTSRYVHWYQQLPGTAPKLLIYFDSQRPSGVPDRFSASKSGTSASLAISGLQSEDEADYYCATWDDSLSAWVFGGGTKLTVL is 1.96 OD450

Given item 43645p1.F11 (scFv, V domains shown) VH: EVQLLESGGGLVQPGGSLRLSCAASGFTFSSYWMSWVRQAPGKGLEWVSGIHISDSTYYADSVKGRFTISRDNSKNTLYLQMNSLRAEDTAVYYCAKGHTVLQYGMDVWGQGTTVTVSS VL: QSGLTQPPSASGTPGQRVTISCSGDISNTRNNYVSWYQQLPGTAPKLLIYRNSQRPSGVPDRFSGSKSATSASLAISGLQSEDEADYYCGTWDNTLNAWVFGGGTKLTVL , the value recorded as its Elisa OD450 is 2.03 OD450

Notebook: 43586p1.2.C11 (scFv, V domains shown) VH: EVQLLESGGGLVQPGGSLRLSCAASGFTFDDYVMSWVRQAPGKGLEWVSLINWNGDKTYCADSVKGRFTISRDNSKNTLYLQMNSLRAEDTAIYYCAKHWIVFQYGMDVWGQGTTVTVSS VL: QSVLTQPPSASGTPGQRVTISCSGSISNIETKYVSWYQQLPGTAPKLLIYNSDQRPSGVPDRFSGSKSGTSASLAISGLQSEDEADYYCVSWDASLKSWVFGGGTKLTVL , Elisa OD450 read as 2.03 OD450
